System: coxsackievirus type B4 (CB4,JVB)
assay.notes: In vitro anti-picornavirus activity (MTT), CB4
Format: cell-based
test.conditions: HeLa cells, MTT method, 37° C.
property.name: IC50 CB4

Hi, could you look up IC50 CB4 for each item in my list?
1. CCn1c(-c2ccccc2)c(C)c(=O)c2cc(NCC(C)C)ccc21.Cl
2. COc1ccc(-c2c(C)c(=O)c3c(C)c(OCC(C)C)ccc3n2C)cc1C
3. CCn1c2c(c(=O)c3cc(CC(C)C)ccc31)Cc1cc(OC)ccc1-2 [Compound B15]

Given back:
1. 2.9 µg/mL
2. 2.4 µg/mL
3. 1.9 µg/mL

Hi, could you look up IC50 CB4 for each item in my list?
1. Cc1c(-c2cccs2)n(C)c2ccc(OCC(C)C)c(C)c2c1=O
2. CCn1c(-c2ccccc2)c(C)c(=O)c2c(C)c(OCC(C)C)ccc21

Given back:
1. 0.65 µg/mL
2. 1.1 µg/mL

Values from patent US7109338B2
